# Test Protocol: Plasma pharmacokinetics of ATX-101 on first infusion day, non-compartmental (Phoenix WinNonlin)
# Condition Description: human, plasma, iv, 30 mg/m2
Ends that are not written are not given here.
Endpoint Name: MRT
The reply must contain the numeric value and, after it, the unit.

Briefly, MRT measured for Ac-MDRWLVKWKKKRKIRRRRRRRRRRR (N-terminus assumed) [ATX-101] : 36.7 min

---

# Test Protocol: Plasma pharmacokinetics of ATX-101 on first infusion day, non-compartmental (Phoenix WinNonlin)
# Condition Description: human, plasma, iv, 45 mg/m2
Ends that are not written are not given here.
Endpoint Name: MRT (min)
Give the number; min is assumed, so skip it.

Briefly, MRT measured for Ac-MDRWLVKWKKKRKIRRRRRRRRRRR (N-terminus assumed) [ATX-101] : 53.3
